Test system: SNB-19 CNS
Assay: NCI-60 one-dose screen, 48 h (100 = growth as untreated, 0 = no growth, -100 = all killed)
Conditions: 10 µM
About 83,000 compounds went through this panel and 20% of them were active in at least one assay; those are over-represented in the sample as a whole.
The threshold is inclusive: growth of exactly 90% counts as TRUE; values below receive FALSE.

COc1cc(Nc2ccnc(NCCNc3ccnc4cc(Cl)ccc34)n2)cc(OC)c1 : FALSE
NC(=O)CC1(c2ccccc2)CCCCC1 : TRUE
CCOC(=O)N1C/C(=C/c2ccc(OC)cc2)C(=O)/C(=C/c2ccc(OC)cc2)C1 : FALSE
COc1ccc2c(c1)C(=O)c1c-2c(OCCN2CCCCC2)nc2ccc(OC)cc12 : FALSE
Cc1ccc(C(=O)N2C/C(=C/c3ccc(F)cc3)C(=O)/C(=C/c3ccc(F)cc3)C2)cc1 : TRUE

Request: Entry COc1ccc2nc3cc(Cl)ccc3c(NCCNCC(C)O)c2c1 (stereo unspecified) : is its growth no less than 90%?
Result: FALSE

Request: Entry O=C(Nc1cccc(Cl)c1)Nc1nccs1 : is its growth no less than 90%?
Result: FALSE

Request: Entry CC(=O)CSC(C)=O : is its growth no less than 90%?
Result: TRUE

* * *

Tested on: HS 578T breast
Experiment: NCI-60 one-dose screen, 48 h (100 = growth as untreated, 0 = no growth, -100 = all killed)
Conditions: 10 µM
Compounds without any hit were thinned out: in the full panel of roughly 83,000, 20% have a hit.
Please provide measured growth for the entries that follow.
Give bare numbers, in %.

Past entries and their recorded results:
O=C(Nc1cccc(-n2cc(-c3ccncc3)c(-c3cc(O)cc(Cl)c3)n2)c1)c1cc(C(F)(F)F)cc(C(F)(F)F)c1 : 65.9
Clc1ccc(Nc2ccnc(NCCNc3ccnc4cc(Cl)ccc34)n2)cc1 : -25
COc1cc(-c2nc(-c3nnc(-c4ccccc4Cl)o3)c3ccccn23)cc(OC)c1OC : 83.1
COc1cc(-c2cc(/C=C3\C(=O)Nc4ccc(Cl)cc43)[nH]n2)cc(OC)c1OC : 6.98

API: the following record is the query input.
Request: Form field: growth recorded for COc1ccc(Oc2nc(NC3CCCC3)nc(Sc3ccc(OC)cc3)n2)cc1 with HS 578T breast (enter value)
Result: 83.8

* * *

System: SW-620 colon
Experiment: NCI-60 one-dose screen, 48 h (100 = growth as untreated, 0 = no growth, -100 = all killed)
Conditions: 10 µM
The panel holds about 83,000 compounds, 20% with a hit somewhere; the sample as a whole holds those more often.
Please provide measured growth for the entries that follow.
Numbers only, in %.

Past entries and their recorded results:
C[C@]12CC[C@@H]3c4ccc(O)cc4C[C@@H](O)[C@H]3[C@@H]1CC[C@@H]2O : 110
COc1ccc(-n2c(SCc3cc(OC)c(OC)c(OC)c3)nc3ccc(C)cc3c2=O)cc1 : 49.3
O=[P@@]1(c2ccccc2)O[C@H](COCc2ccccc2)[C@@H](OCc2ccccc2)[C@H](OCc2ccccc2)[C@H]1O : 104
O=C1Nc2ccc(Cl)cc2/C1=C\c1c(-c2ccc(Cl)cc2)nc2sc(C3CC3)nn12 : 80.8

Would you be so kind as to report growth for each listed record?
1. COc1ccccc1/C=C/C(=O)c1ccccc1
2. COc1cc(/C=C\c2cc(OC)c(OC)c(OC)c2)cc(NS(=O)(=O)c2ccc(Cl)cc2)c1OC
3. Fc1ccc2nc(-c3nc(-c4ccccc4)n4ccccc34)[nH]c2c1

Result:
14.9
30.4
26.5

* * *

System: SF-295 CNS
Test: NCI-60 one-dose screen, 48 h
Conditions: 10 µM
This is part of a sample that, as a whole, favours compounds with a hit. Of some 83,000 tested, about 20% had one in any assay. Active and inactive are the calls of the source. Rule for the calls: active = growth percent below 10; inactive = the rest.
# output must be one of active, inactive

COc1cc2cc3c(nc2cc1OC)CCN3Cc1ccc(NC(=O)Nc2ccc(F)cc2F)cc1 : inactive
c1ccc(CO[C@H]2CO[C@H]3[C@@H]2OC[C@H]3OCc2ccccc2)cc1 : inactive
O=C(Nc1ccncc1)C(=O)c1cn(S(=O)(=O)c2ccc(F)cc2)c2ccccc12 : inactive

Request: What call does the record list for CCN(CC)CCSCCCNc1c2ccc(Cl)cc2nc2ccc(OC)cc12 ?
Result: active

Request: What call does the record list for CC(C)(Cl)CCC1=C(Cl)C(=O)c2ccccc2C1=O ?
Result: inactive

Request: What call does the record list for Cc1ccc(NC(=O)Nc2c(Cl)cccc2Cl)cn1 ?
Result: inactive

Request: What call does the record list for CC(=O)N(C)c1ccc(Nc2ccc(Nc3ccc(N(C)C(C)=O)cc3)c3c2C(=O)c2ccccc2C3=O)cc1 ?
Result: inactive

Request: What call does the record list for COc1cc(-c2nc(Nc3nc4ccccc4s3)[nH]c(=O)c2C#N)cc(OC)c1O ?
Result: inactive

* * *

System: PC-3 prostate
Assay: NCI-60 one-dose screen, 48 h
Conditions: 10 µM
Procedure: Growth inhibition of the PC-3 human tumor cell line is measured as a screen for anti-cancer activity. Cells are grown in 96 well plates and exposed to the test compound for 48 hours. Compounds are tested at a single concentration, which is 10^-5 M for most compounds. The reported endpoint is percent growth (GI% or GIPRCNT), where numbers from 0 - 100% represent growth inhibition, and numbers from -100% - 0 represent cell death. For example, a value of 40 represents 60% growth inhibition. […]
About 83,000 compounds went through this panel and 20% of them were active in at least one assay; those are over-represented in the sample as a whole. The source made the active and inactive calls. The calls were made as follows: active = growth percent below 10; inactive = the rest.
# output must be one of True (active), False (inactive)

Below, 8 molecules whose answers are already recorded.
COc1ccccc1CNCCCN1C(=O)c2ccc3c4c(ccc(c24)C1=O)C(=O)N(CCCN)C3=O : True
COc1ccc(-c2ccc(-c3ccc(C(=N)N)cn3)o2)cc1 : False
O=S(=O)(NCCCNc1nccc(-c2c(-c3ccc(F)cc3)nc3sccn23)n1)c1ccc2ccccc2c1 : False
O=c1oc2cc(OS(=O)(=O)c3ccccc3)ccc2c2c1CCCCC2 : False
O=C(C[P+](c1ccccc1)(c1ccccc1)c1ccccc1)C[P+](c1ccccc1)(c1ccccc1)c1ccccc1 : True
Cc1ccc(C(=O)N2C/C(=C/c3ccccc3)C(=O)/C(=C/c3ccccc3)C2)cc1 : False
CN(C)C(=S)N/N=C\C=N/NC(=S)N(C)C : True
COc1ccc(Cn2c(C(N)=O)cc3c2-c2nc(N)ncc2CCC3)cc1 : False

In the following, a different molecule is considered.
Request: What call does the record list for CCOC(=O)C(CSC(c1ccccc1)(c1ccccc1)c1ccccc1)NC(=O)C(CSC(c1ccccc1)(c1ccccc1)c1ccccc1)NC(c1ccccc1)(c1ccccc1)c1ccccc1 (centres undefined) ?
Result: False

* * *

Tested on: OVCAR-8 ovarian
Assay: NCI-60 one-dose screen, 48 h
Conditions: 10 µM
The panel holds about 83,000 compounds, 20% with a hit somewhere; the sample as a whole holds those more often. Active and inactive are the calls of the source. The calls were made as follows: active = growth percent below 10; inactive = the rest.
# output must be one of active, inactive

Below, 3 compounds whose answers are already recorded.
O=C(Nc1cccc(-n2cc(-c3ccncc3)c(-c3ccc(O)c(Cl)c3)n2)c1)c1ccc(Cl)c(Cl)c1 : inactive
COc1ccc(OC)c(/C=C/c2nc(SCc3ccccc3)n(-c3ccc(Cl)cc3)n2)c1 : inactive
CCN(CC)Cc1cc(Nc2ccnc3cc(Cl)ccc23)ccc1OC : inactive

Request: What call does the record list for O=C1/C(=C\c2ccc(Br)cc2)CN(C(=O)c2ccccc2F)C/C1=C\c1ccc(Br)cc1 ?
Result: active

Request: What call does the record list for CCOCCOCCOCCOCCOCCOCCOCCOCCOCCO (tested in a mixture with another compound) ?
Result: active

Request: What call does the record list for O=C(Nc1ccc(Cl)c(Cl)c1)Nc1c(Oc2ccc(Cl)c(Cl)c2)ccc(Cl)c1S(=O)(=O)O ?
Result: inactive

Request: What call does the record list for CC[C@H](C)C(=O)O[C@H]1CCC=C2C=C[C@H](C)C(CCC3C[C@@H](O)CC(=O)O3)[C@H]21 (stereo partly specified) ?
Result: inactive

Request: What call does the record list for COc1ccc(/C=C/C(=O)Nc2ccc(-c3nc4ccc(OC)cc4s3)cc2)cc1 ?
Result: inactive

Request: What call does the record list for O=C(Nc1cccc(Br)c1)c1cc(=O)[nH]c2ccccc12 ?
Result: inactive

Request: What call does the record list for COc1ccc(Nc2ccnc(NCCNc3ccnc4cc(Cl)ccc34)n2)cc1 ?
Result: inactive

Request: What call does the record list for COc1ccc(-c2nc3ccccn3c2-c2nnc(-c3cc(OC)c(OC)c(OC)c3)o2)cc1 ?
Result: inactive

Request: What call does the record list for c1ccc2c(c1)oc1c3c(ccc12)NCCC3 ?
Result: inactive

Request: What call does the record list for O=C1OCC2=C1C(c1cccc(Cl)c1)c1cc3c(cc1N2CCO)OCCO3 (stereo unspecified) ?
Result: active

Request: What call does the record list for CCN(CC)CCN1CC(=O)Nc2cc(Cl)ccc21 ?
Result: inactive

Request: What call does the record list for N#CCCN1C/C(=C/c2ccc(Cl)cc2)C(=O)/C(=C/c2ccc(Cl)cc2)C1 ?
Result: active
